Just for reference, paper PMC5540273 is where these values come from.

Tested on: ERK8
Construct: gene MAPK15
reportedConditions: concentration: 1 μM, replicates: in singlicate; n = 1
quantityKind: %Inh

A selection of reference data follows.
compound	%Inh
COc1nccc(-c2c(-c3ccc(F)cc3)ncn2CCCN2CCOCC2)n1 [SB-282852]	4%
COc1ccc(CSc2nnc(-c3ccc4c(c3)CCO4)o2)cc1	0%
COC(=O)C(NC(=O)NC1CCN(c2ccnc(Nc3ccc(F)cc3)n2)C1)c1ccccc1 (stereo not shown) [GSK1379712]	0%
CS(=O)(=O)CCNCc1nc(-c2ccc3ncnc(Nc4ccc5c(cnn5Cc5ccccc5)c4)c3c2)cs1.Cl.Cl [GW569716]	0%
CCn1c(-c2c(N)noc2C)nc2cnccc21 [SB-737856]	41%

Exam item: %Inh of CC(C)c1cc(-c2ccc3c(N)n[nH]c3c2)nc(N)n1 [GSK2250882] on ERK8?
Marked response: 0%

Exam item: Next up: COC(=O)c1cccc(NC(=O)NC2CCN(c3ccnc(Nc4ccc(OC)cc4)n3)C2)c1 (stereo not shown) [GSK1379746]
Marked response: 0%

Exam item: Next up: COc1ccc(CSc2nnc(-c3ccc4nccn4c3)o2)cc1C(F)(F)F
Marked response: 39%

---

Test system: IKK-beta;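 further: kd values determined as follow-up on hits from a single-replicate KINOMEscan panel screen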
Construct: gene IKBKB
quantityKind: Kd

Exam item: Form field: reported Kd of COc1cccc(NC(=O)Nc2ccc(C)c(-c3ccc(C(=O)Nc4ccncc4)cc3)c2)c1
Marked response: > 10 µM

---

This listing pairs molecules with measured %Inh.
Test system: NEK7
reportedConditions: concentration: 1 μM, replicates: in singlicate; n = 1
Give just the number in %; leave the unit off.

A selection of reference data follows.
molecule	assayedTarget	unitAnnotation	%Inh
CS(=O)(=O)CCNCc1nc(-c2ccc3ncnc(Nc4ccc5c(cnn5Cc5ccccc5)c4)c3c2)cs1.Cl.Cl	NEK7	%	0
CS(=O)(=O)Cc1ccc(Nc2nccc(-c3c(-c4cccc(NC(=O)C5CCCCC5)c4)nn4ncccc34)n2)cc1	NEK7	%	18
COc1ccc(CSc2nnc(-c3ccc4nccn4c3)o2)cc1C(F)(F)F	NEK7	%	7
COc1cc2ncnc(Nc3cccc(Br)c3)c2cc1OC.Cl	NEK7	%	0
COC(=O)C(NC(=O)NC1CCN(c2ccnc(Nc3ccc(F)cc3)n2)C1)c1ccccc1 (stereo not drawn)	NEK7	%	0
O=C1NC(=O)C(c2ccc(Cl)cc2)=C1Nc1cccc(Cl)c1	NEK7	%	0
COc1nccc(-c2c(-c3ccc(F)cc3)ncn2CCCN2CCOCC2)n1	NEK7	%	0
CCn1c(-c2ccccc2)nc2cnccc21	NEK7	%	0
c1ccc(-c2ccnc3[nH]ccc23)cc1	NEK7	%	0
O=C(Nc1n[nH]c2nc(-c3cccs3)c(Br)cc12)C1CC1	NEK7	%	13

Exam item: Form field: reported %Inh of CC[C@@H]1CO[C@H](C(=O)Nc2ccccc2)CN1c1cc(-c2ccc3c(N)n[nH]c3c2)nc(NC)n1
Marked response: 0

Exam item: Next up: COc1ccc(CSc2nnc(-c3ccc4ncsc4c3)o2)cc1C(F)(F)F
Marked response: 0

---

Tested on: EPHB4
reportedConditions: concentration: 1 μM, replicates: in singlicate; n = 1
quantityKind: %Inh (%)
Give just the number in %; leave the unit off.

molecule	observedResult
c1ccc(-c2ccnc3[nH]ccc23)cc1 [SB-693578]	1

Exam item: Form field: reported %Inh of CC(C)c1ccc(O)cc1Nc1ccnc2ccc(C(F)(F)F)cc12 [GW482059]
Marked response: 0

Exam item: Next up: CS(=O)(=O)CCNCc1nc(-c2ccc3ncnc(Nc4ccc5c(cnn5Cc5ccccc5)c4)c3c2)cs1.Cl.Cl [GW569716]
Marked response: 8

Exam item: Next up: O=C(Nc1n[nH]c2nc(-c3cccs3)c(Br)cc12)C1CCCC1 [SB-743341]
Marked response: 22

Exam item: Next up: Fc1ccc(-c2nc[nH]c2-c2ccncc2)cc1 [SB-217360]
Marked response: 0

Exam item: Next up: CNC(=O)c1ccc(C)c(-n2c(C)cc(OCc3ccc(F)cc3F)c(Br)c2=O)c1
Marked response: 0

Exam item: Next up: Cc1ccc(NC(=O)Nc2ccccc2F)cc1-c1ccc(C(=O)Nc2ccncc2)cc1 [GSK1398477]
Marked response: 21

Exam item: Next up: CC(C)c1cc(-c2ccc3c(N)n[nH]c3c2)nc(N)n1 [GSK2250882]
Marked response: 18

Exam item: Next up: COC(=O)C(Cc1ccccc1)NC(=O)NC1CCN(c2ccnc(Nc3ccc(F)cc3)n2)C1 (stereo not drawn) [GSK1379714]
Marked response: 0
